# STUDY_TARGET: human NaPi-IIb (Homo sapiens, UniProt O95436)
# Construct: expressed in transfected cells
# Sequence (O95436 1-690): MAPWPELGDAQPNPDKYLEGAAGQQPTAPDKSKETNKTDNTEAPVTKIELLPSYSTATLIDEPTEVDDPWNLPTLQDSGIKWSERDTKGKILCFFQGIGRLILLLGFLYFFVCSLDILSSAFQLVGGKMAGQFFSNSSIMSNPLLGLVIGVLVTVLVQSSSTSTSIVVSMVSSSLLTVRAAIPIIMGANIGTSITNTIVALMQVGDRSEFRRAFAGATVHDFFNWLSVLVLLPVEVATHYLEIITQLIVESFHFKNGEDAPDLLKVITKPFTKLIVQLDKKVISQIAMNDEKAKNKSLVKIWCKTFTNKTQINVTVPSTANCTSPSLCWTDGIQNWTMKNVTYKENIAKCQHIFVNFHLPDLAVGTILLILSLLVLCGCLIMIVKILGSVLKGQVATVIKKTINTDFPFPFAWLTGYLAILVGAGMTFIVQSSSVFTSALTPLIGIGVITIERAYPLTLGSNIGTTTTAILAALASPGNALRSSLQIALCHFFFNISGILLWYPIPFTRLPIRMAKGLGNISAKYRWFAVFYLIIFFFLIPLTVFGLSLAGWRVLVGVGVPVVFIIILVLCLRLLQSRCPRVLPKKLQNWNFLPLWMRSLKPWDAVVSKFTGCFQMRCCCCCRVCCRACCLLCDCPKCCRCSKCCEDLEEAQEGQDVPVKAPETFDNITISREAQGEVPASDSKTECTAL
# EXPERIMENTAL_PROTOCOL: Inhibitory effect on 33PO4 uptake into human NaPi-IIb-expressing CHO cells
# Assay type: cell-based
# TEST_CONTEXT: read-out: IC50
Counter-ions that a name gives are not always drawn.
Response field label takes Satisfied when IC50 is strictly below 5 µM and Not satisfied in all other cases.

C[C@]12CCCN1N(Cc1cccc(C#N)c1)C(=O)C(C(=O)Nc1ccc(C(F)(F)F)cc1-c1cnc(Cl)c(C#N)c1)=C2O [Example 51]
Not satisfied
CSc1ccc(-c2cc(C(F)(F)F)ccc2NC(=O)C2=C(O)C(C)(C)N(C)N(Cc3cccc(F)c3F)C2=O)cn1 [Example 310]
Satisfied
C[C@]12CCCN1N(Cc1cccc(F)c1F)C(=O)C(C(=O)Nc1ccc(Br)cn1)=C2O [Example 78]
Not satisfied
CN1N(Cc2cccc(F)c2F)C(=O)C(C(=O)Nc2ccc(Br)c(C(F)(F)F)n2)=C(O)C12CCC2 [Example 258]
Satisfied
CN1N(Cc2ccc(C#CCN3CCOCC3)c(F)c2F)C(=O)C(C(=O)Nc2ccc(Cl)cc2-c2cc(C(F)(F)F)ncn2)=C(O)C1(C)C [Example 316]
Not satisfied

In: Decide: IC50 of C[C@]12CCCN1N(Cc1ccc(SCCN3CCOCC3)c(F)c1F)C(=O)C(C(=O)Nc1ccc(C(F)(F)F)cc1-c1ccc(C(F)(F)F)nc1)=C2O [Example 163, hydrochloride] strictly below 5 µM?
Out: Not satisfied

In: # TODO verify IC50 < 5 µM strictly for this molecule: C[C@]12CCCN1N(Cc1cccc(F)c1F)C(=O)C(C(=O)Nc1ccc(Cl)cc1F)=C2O [Example 76]
Out: Not satisfied

---

# STUDY_TARGET: human NaPi-IIb (Homo sapiens)
# Construct: expressed in transfected cells
# EXPERIMENTAL_PROTOCOL: Inhibitory effect on 33PO4 uptake into human NaPi-IIb-expressing CHO cells
# Format: cell-based
# TEST_CONTEXT: read-out: IC50
pIC50: −log10 of the molar value.
// NO strictly below 5 in pIC50; YES otherwise

C[C@]12CCCN1N(Cc1ccccc1F)C(=O)C(C(=O)Nc1ccc(C(F)(F)F)cc1-c1cc(C(F)(F)F)ncn1)=C2O
YES
C[C@]12CCCN1N(Cc1cccc(F)c1F)C(=O)C(C(=O)Nc1ccc(C(F)(F)F)cc1-c1cnc(N3CC4(COC4)C3)c(C#N)c1)=C2O
NO
C[C@]12CCCN1N(Cc1ccc(OCCN3CCOCC3)c(F)c1F)C(=O)C(C(=O)Nc1ccc(C(F)(F)F)cc1-c1cc(C(F)(F)F)ncn1)=C2O
NO
C[C@]12CCCN1N(Cc1cccc(C#N)c1)C(=O)C(C(=O)Nc1ccc(C(F)(F)F)cc1-c1cc(C(F)(F)F)ncn1)=C2O
NO
Cc1cccc(CN2C(=O)C(C(=O)Nc3ccc(C(F)(F)F)cc3-c3cc(C(F)(F)F)ncn3)=C(O)[C@@]3(C)CCCN23)c1F
YES

In: Hello, I need to know if CN1N(Cc2cccc(F)c2F)C(=O)C(C(=O)Nc2ccc(Cl)cc2-c2ccc(C(F)(F)F)nc2)=C(O)C1(C)C has measured pIC50 not below 5. Thanks!
Out: YES

---

# STUDY_TARGET: human NaPi-IIb (Homo sapiens, UniProt O95436)
# Construct: expressed in transfected cells
# EXPERIMENTAL_PROTOCOL: Inhibitory effect on 33PO4 uptake into human NaPi-IIb-expressing CHO cells
# Type: cell-based
# TEST_CONTEXT: read-out: IC50 against 33PO4 uptake into human NaPi-IIb-expressing cells
Measured IC50, listed per entry for reference.
Lab book: enter the figure in µM, no units written.

Previously resolved entries follow.
CN1N(Cc2ccc(OCCCOC[C@H](O)CO)c(F)c2F)C(=O)C(C(=O)Nc2ccc(C(F)(F)F)cc2-c2cc(C(F)(F)F)ncn2)=C(O)C12CCCC2 [Example 392]
15.8
COCCN(C)CCOCCOCCOCCOCCOc1ccc(CN2C(=O)C(C(=O)Nc3ccc(C(F)(F)F)cc3-c3cc(C(F)(F)F)ncn3)=C(O)C3(CCCC3)N2C)c(F)c1F [Example 432]
6.3
CN1N(Cc2ccc(OCCCOCCCO)c(F)c2F)C(=O)C(C(=O)Nc2ccc(C(F)(F)F)cc2-c2cc(C(F)(F)F)ncn2)=C(O)C12CCCC2 [Example 398]
9.9

In: Field request: IC50 | item: CN1N(Cc2ccc(OCCN3CCN(CCCO)CC3)c(F)c2F)C(=O)C(C(=O)Nc2ccc(C(F)(F)F)cc2-c2cc(C(F)(F)F)ncn2)=C(O)C12CCC2 [Example 362]
Out: 18.8

In: Recorded IC50 for CN1N(Cc2ccc(OCCCCOC[C@H](O)CO)c(F)c2F)C(=O)C(C(=O)Nc2ccc(C(F)(F)F)cc2-c2ccc(C(F)(F)F)nc2)=C(O)C12CCC2 [Example 384] , please?
Out: 11

In: Which measured IC50 value corresponds to CN1N(Cc2ccc(OC(C)(C)CN3CCOCC3)c(F)c2F)C(=O)C(C(=O)Nc2ccc(C(F)(F)F)cc2-c2cc(C(F)(F)F)ncn2)=C(O)C12CCC2 [Example 407] ?
Out: 6.9

---

Reported pIC50 values follow for various compounds
# STUDY_TARGET: human NaPi-IIb (Homo sapiens, UniProt O95436)
# Construct: expressed in transfected cells
# EXPERIMENTAL_PROTOCOL: Inhibitory effect on 33PO4 uptake into human NaPi-IIb-expressing CHO cells
# Format: cell-based
# TEST_CONTEXT: read-out: IC50
# Experimental: Test Example 2: Inhibitory Effect on PO4 Uptake into Human NaPi-IIb-Expressing Cell CHO cells were transfected with human NaPi-IIb expression plasmids, and a stably human NaPi-IIb-expressing cell line was obtained using G418. The human NaPi-IIb-expressing cells were inoculated to a 96-well plate and incubated overnight in a CO2 incubator. […] After washing with ice-cold buffer A, a liquid scintillator was added to each reaction mixture, and the amount of ^33PO4 uptake was measured using TopCount.
// field semantics: pIC50 = negative decimal log of concentration (mol/L)

Below, 5 compounds whose answers are already recorded.
CC(C)[C@H]1C(O)=C(C(=O)Nc2ccc(C(F)(F)F)cc2-c2cc(C(F)(F)F)ncn2)C(=O)N(Cc2cccc(F)c2F)N1C
5.02
COc1cccc(-c2cc(C(F)(F)F)ccc2NC(=O)C2=C(O)[C@@]3(C)CCCN3N(Cc3ccc(C#CCOCCO)c(F)c3F)C2=O)c1OC
4.71
C[C@]12CCCN1N(Cc1cccc(Cl)c1)C(=O)C(C(=O)Nc1cc(F)c(Br)c(F)c1)=C2O
5.18
CN1N(Cc2cccc(F)c2F)C(=O)C(C(=O)Nc2cc(F)c(Br)c(F)c2)=C(O)C12CCC2
5.22
C[C@]12CCCN1N(Cc1cccc(Cl)c1)C(=O)C(C(=O)Nc1ccc(C(F)(F)F)cc1-c1cc(C(F)(F)F)ncn1)=C2O
5.32

Please find the next compound below.
In: What pIC50 value was documented for this compound, C[C@]12CCCN1N(Cc1c(F)cc(C#CCCCCOC[C@H](O)CO)cc1F)C(=O)C(C(=O)Nc1ccc(C(F)(F)F)cc1-c1ccc(C(F)(F)F)nc1)=C2O ?
Out: 5.17

---

Listed next: entries and their corresponding IC50.
# STUDY_TARGET: human NaPi-IIb (Homo sapiens)
# Construct: expressed in transfected cells
# EXPERIMENTAL_PROTOCOL: Inhibitory effect on 33PO4 uptake into human NaPi-IIb-expressing CHO cells
# Assay type: cell-based
# TEST_CONTEXT: read-out: IC50

A selection of reference data follows.
C[C@]12CCCN1N(Cc1ccc(F)c(F)c1)C(=O)C(C(=O)Nc1ccc(C(F)(F)F)cc1-c1cc(C(F)(F)F)ncn1)=C2O
7 µM
C[C@]12CCCN1N(Cc1cccc(F)c1F)C(=O)C(C(=O)Nc1ccc(C(F)(F)F)cc1-c1cnc(Cl)cn1)=C2O
4.1 µM

Moving on to the next molecule.
In: # IC50 lookup, item C[C@]12CCCN1N(Cc1cccc(F)c1F)C(=O)C(C(=O)Nc1ccc(C(F)(F)F)cc1-c1cc(C(F)(F)F)ncn1)=C2O
Out: 2.8 µM

All values here come from patent US9499553B2.
